B1: Hairpin Ribozyme (parent)
chain: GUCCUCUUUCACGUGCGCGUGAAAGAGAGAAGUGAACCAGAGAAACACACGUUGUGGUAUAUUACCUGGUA

Variants of: B1
Assay: self-cleavage, relative activity (ratio to wild type); higher = more cleavage; co-transcriptional

orderedResidues	self-cleavage
GUCCUCUUUCACGUGCGCGUGAAAGAGAUAAGUGAACCAGAGAAACACCCGUUGUGGUAUAUUACCUGGUA [G29U A49C]	0.14
GUCCUCUUUCACGUGCGCGUGAAAGAGAGGAGUGAACCAGAGAAACACAAGUUGUGGUAUAUUACCUGGUA [A30G C50A]	0.0824
GUCCUCUUUCACGUGCGCGUGAAAGAGAGAAGUGAACCAGAGAAACACACGUUGUGGUGUAUUAACUGGUA [A59G C65A]	0.155
GUCCUCUUUCACGUGCGCGUGAAAGAGAGAAGUGAACCAGAGAAACACACGUUGUGGUAUACCACCUGGUA [U62C U63C]	0.168
GUCCUCUUUCACGUGCGCGUGAAAGAGAGAAGUGCACCAGAGAAACACACGUUGUGGUAUAUUUCCUGGUA [A35C A64U]	0.192
GUCCUCUUUCACGUGCGCGAGAAAGAGAGAAGUGAACCAGAGAAACACACGUUGUGGUAUAUUACCUGGCA [U20A U70C]	0.663
GUCCUCUUACACGUGCGCGUGAAAGAGAAAAGUGAACCAGAGAAACACACGUUGUGGUAUAUUACCUGGUA [U9A G29A]	0.0709
GUCCUCUUUCACGUGCGCGUGAAAGAGAGAAGUGAACCAGAGCAACACACGUUGUGGUAUCUUACCUGGUA [A43C A61C]	0.218
GUCCUCUGUCACGUGCGCGUGAAAGAGAGUAGUGAACCAGAGAAACACACGUUGUGGUAUAUUACCUGGUA [U8G A30U]	0.186
GUCCUCUCUCACGUGCGCGUGAAAGAGAGAAGUGAACCAGAGAAACACACGUUGUAGUAUAUUACCUGGUA [U8C G56A]	0.153
GCCCUCUUUCACGUGCGCGUGAAAGAGAGAAGUGAACCAGAGAAACACACGUUGUGGUAUAUUACGUGGUA [U2C C66G]	0.0316
GUUCUCUUUCACGUGCGCGUGAAAGAGAGAAGUGAACCAGAGAAACACACGUUGUUGUAUAUUACCUGGUA [C3U G56U]	0.0961
GUUCUCUUUCACGUGCGCGUGAAAGAGAGAAGUGAACCAGAGAAACACACGUUGCGGUAUAUUACCUGGUA [C3U U55C]	0.153
GUCCUCUUUCACGUGCGCGUGAAAGAGAUACGUGAACCAGAGAAACACACGUUGUGGUAUAUUACCUGGUA [G29U A31C]	0.2
GUCCUCUUUCACGUGCGCGUGAAAGAGAGAAGUGAACCAGAGAAACACCCGUUGUGGUAUAUUUCCUGGUA [A49C A64U]	0.178
GUCCUCUUUCACGUGCGCGUGAAAGAGAGAAGAGAACCAGAGAAACACACUUUGUGGUAUAUUACCUGGUA [U33A G51U]	0.129
GUCCUCUUUCACGUGCGCGUGAAAGAGAGAAGUGAACCCGAGAAACACACGUUGUGGUAUAUUAUCUGGUA [A39C C65U]	0.401
GUCCUCUUUCUCGUGCGCGUGCAAGAGAGAAGUGAACCAGAGAAACACACGUUGUGGUAUAUUACCUGGUA [A11U A22C]	0.363
GUCCUCUUUCACGUGCGCGUUAAAGAGAGAAGUGAACCAGAGAAACACACGUUGUGGUAUAAUACCUGGUA [G21U U62A]	0.151
GUCAUCUUUCACGUGCGCGUGAAAGAGAGAAGUGAACCAGAGAAACACACCUUGUGGUAUAUUACCUGGUA [C4A G51C]	0.261
GUCCUCUUUCACGUGCGCGUGAAAGAGAGAAGCGAACCAGAGAAACACACGUUGUGGUAGAUUACCUGGUA [U33C U60G]	0.0999
GUCCUCUUUCACGUGCGCGUGAAAGAGAGAAGAGAACCAGAGAAACACACGUUGUGGUAUAUGACCUGGUA [U33A U63G]	0.27
GUCCUCUUUCACGUGCGCGUGAAAGAGAGAAGUGAACCAGAGAUAUACACGUUGUGGUAUAUUACCUGGUA [A44U C46U]	0.193
GUCCUCUUUCACGUGCGCGUGAAACAGAGAAGUGAACCAGAGAAACAUACGUUGUGGUAUAUUACCUGGUA [G25C C48U]	0.187
GUCCUCUUUCACGUGCGCGUGAAAGAGAGAAGUGAACCCGAGAAACACACGUUGUGGUAUAUUACCUCGUA [A39C G68C]	0.191
GUCCUCUUUCACGUGCGCGUGAAAGAGAGAAGUGAACCAGACAAACACACGUUGUGGUCUAUUACCUGGUA [G42C A59C]	0.188
GUCCUCUUUCACGUGCGCGAGAACGAGAGAAGUGAACCAGAGAAACACACGUUGUGGUAUAUUACCUGGUA [U20A A24C]	0.81
GUCCUCUUUAACGUGCGCGUCAAAGAGAGAAGUGAACCAGAGAAACACACGUUGUGGUAUAUUACCUGGUA [C10A G21C]	0.67
GUCCUCUUUAACGUGCGCUUGAAAGAGAGAAGUGAACCAGAGAAACACACGUUGUGGUAUAUUACCUGGUA [C10A G19U]	0.59
GUCCUCUUUCACGUGCGCGUGAAAGAGAGAAGUGAACGAGAGAAACACACGUUGUGGUAUAUUACAUGGUA [C38G C66A]	0.151
GUCCUCUUUCACGUGCGCGUGCAAGAGAGAAGUGAACCAGAGAAACACACGUUGUCGUAUAUUACCUGGUA [A22C G56C]	0.243
GUCCUCUUUCACGUGCGCGUGAAAGAUAGAAAUGAACCAGAGAAACACACGUUGUGGUAUAUUACCUGGUA [G27U G32A]	0.104
GUCCUCUUUCACGUGCGCCUGAAAGAGAGAAGUGAACCAGAGAAACGCACGUUGUGGUAUAUUACCUGGUA [G19C A47G]	0.277
GUCCUCUUUCACGUGCGCGUGAAAGAGAGAAUUGAACCAGAGAAACACACGUUAUGGUAUAUUACCUGGUA [G32U G54A]	0.105
GUCCUCUUUCACGUGCGCGUGAAAGAGAGGAGUGAACCAGAGAAACACACGUUCUGGUAUAUUACCUGGUA [A30G G54C]	0.178
GUCCUCUUUCACGUGCGCGUGAAAGAGAGAAGUGAACCAGAGAAACACACGUGGUGGUAUAGUACCUGGUA [U53G U62G]	0.315
GUCCUCUUUCACGUGCGCGUGAAAGAGAGGAGUGAACCAGAGAAGCACACGUUGUGGUAUAUUACCUGGUA [A30G A45G]	0.17
GUCCUCGUUCACGUGCGCGUGAAAGAGAGAAGUGAACCAGAGAAACACACGUUGUGGUAUACUACCUGGUA [U7G U62C]	0.0811
GUCCUCUUUCACGUGCGCGUGAAAGAGAGAAGUGAACCAGCGAAACACACGUUGUGGUAUAUUACCUGGAA [A41C U70A]	0.732
GUGCUCUUUCACGUGCGCGUGAAAGAGAGAAGCGAACCAGAGAAACACACGUUGUGGUAUAUUACCUGGUA [C3G U33C]	0.143
GUCCUCUUUCACGUGCGCGUGAAAGAGAGAAGUGGACCAGAGAAACACACGUUGUGGUAUAUAACCUGGUA [A35G U63A]	0.232
GUCCUCUUUCACGUGCGCGUGAAAGACAGAAGUGAACCAGAGAAACACACGUUGUGGUAGAUUACCUGGUA [G27C U60G]	0.0405
GUCCUCUUUCCCGUGCGCGUGAAAGAGAGAGGUGAACCAGAGAAACACACGUUGUGGUAUAUUACCUGGUA [A11C A31G]	0.437
GUCCUCUUUCACGUGCGCGUGAAAGAGAGAAGUGAACCAGAGAAACACACGUUGGGGUAUGUUACCUGGUA [U55G A61G]	0.0963
GUCCUCUUACACGUGCGCGUGAAAGAGAGAAGUGAACCAGAGAAACACACGUUGUGGUAUAUUACCAGGUA [U9A U67A]	0.147
GUCCUCAUUCACGUGCGCGUGAAAGAGAGAAGUGAACCAGAGAAACACACGAUGUGGUAUAUUACCUGGUA [U7A U52A]	0.992
